Quick reference for LogIC50 among some binders
Biological target: T1, rat NK1 receptor (rat, UniProt P14600 1-407)
T1 construct: whole, on cells; membrane preparations of the transfected cells were used; also called rNK1; rNK-1
T1 sequence (P14600 whole entry): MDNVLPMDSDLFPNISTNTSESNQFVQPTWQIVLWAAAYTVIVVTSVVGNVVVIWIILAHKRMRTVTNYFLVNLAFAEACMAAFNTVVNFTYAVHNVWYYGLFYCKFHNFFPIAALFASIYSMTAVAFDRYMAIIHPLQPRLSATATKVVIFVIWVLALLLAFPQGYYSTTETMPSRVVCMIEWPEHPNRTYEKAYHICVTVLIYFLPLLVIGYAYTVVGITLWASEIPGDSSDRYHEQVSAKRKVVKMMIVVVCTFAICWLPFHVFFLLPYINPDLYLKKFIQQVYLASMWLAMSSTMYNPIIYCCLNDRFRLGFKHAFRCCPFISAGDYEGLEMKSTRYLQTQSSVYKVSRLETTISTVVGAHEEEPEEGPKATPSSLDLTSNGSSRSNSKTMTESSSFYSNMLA
Assay: competition vs [3H]Substance P, rNK1 CHO cell membranes
Bridge positions count the residues as written; N and C are the ends. Square brackets hold non-standard residues; d marks the D form. Ends that are not written are not given here. * marks the point of attachment. NH(3,5-(CF3)2-benzyl) = FC(F)(F)c1cc(CN*)cc(C(F)(F)F)c1; Nle = CCCC[C@H](N)C(=O)O
API note: the answer field is a bare number with no unit suffix.

Y[dC]GFCPLW-{NH(3,5-(CF3)2-benzyl)} (disulfide 2-5, cyclic; also called TY039; [D-Cys2, Cys5]TY027) [Tyr[DCysGlyPheCys]ProLeuTrpNHBn(CF3)2] ... -5.8
Y[dC]GF[Nle]P[dC]W-{NH(3,5-(CF3)2-benzyl)} (disulfide 2-7, cyclic; also called TY038; [D-Cys2, D-Cys7]TY027) [Tyr[DCysGlyPheNleProDCys]TrpNHBn(CF3)2] ... -7.7

Request: Entry Y[dC]GF[dC]PLW-{NH(3,5-(CF3)2-benzyl)} (disulfide 2-5, cyclic; also called TY037; [D-Cys2, D-Cys5]TY027) [Tyr[DCysGlyPheDCys]ProLeuTrpNHBn(CF3)2] has what LogIC50?
Result: -6.9

Request: Entry Y[dA]GFMPLW-{NH(3,5-(CF3)2-benzyl)} (also called TY027) [TyrDAlaGlyPheMetProLeuTrpNHBn(CF3)2] has what LogIC50?
Result: -7.6

Request: Entry Y[dC]GF[Nle]PCW-{NH(3,5-(CF3)2-benzyl)} (disulfide 2-7, cyclic; also called TY035; [D-Cys2, Cys7]TY027) [Tyr[DCysGlyPheNleProCys]TrpNHBn(CF3)2] has what LogIC50?
Result: -7
